Biological target: CD73 (Homo sapiens, UniProt P21589)
Sequence (P21589 27-574): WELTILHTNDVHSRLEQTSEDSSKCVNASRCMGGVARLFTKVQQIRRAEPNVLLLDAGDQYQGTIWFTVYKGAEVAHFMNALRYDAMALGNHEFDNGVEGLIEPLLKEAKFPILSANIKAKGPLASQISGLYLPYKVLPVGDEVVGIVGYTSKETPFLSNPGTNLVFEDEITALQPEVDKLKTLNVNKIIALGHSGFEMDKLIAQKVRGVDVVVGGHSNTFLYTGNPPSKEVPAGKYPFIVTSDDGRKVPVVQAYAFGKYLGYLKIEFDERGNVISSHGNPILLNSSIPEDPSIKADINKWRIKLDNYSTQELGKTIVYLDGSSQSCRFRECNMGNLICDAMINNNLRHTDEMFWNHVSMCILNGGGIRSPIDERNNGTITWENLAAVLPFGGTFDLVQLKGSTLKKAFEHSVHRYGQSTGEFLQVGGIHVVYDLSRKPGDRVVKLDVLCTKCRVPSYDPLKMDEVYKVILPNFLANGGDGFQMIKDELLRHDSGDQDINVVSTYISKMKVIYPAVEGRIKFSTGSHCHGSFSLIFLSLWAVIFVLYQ
Assay: Human CD73 Biochemical Assay
Conditions: 0.05 nM recombinant CD73; AMP 5.56 μM final; 10 min at room temperature; LC/MS adenosine readout; read-out: Enzymatic IC50 against human CD73
Observable: pIC50
Answers are plain numbers, as −log10 of the molar value.

Please state, for each entry, its recorded pIC50.
1. C[C@H]1COC[C@@H]1Oc1cc([C@@H](Oc2nn(C)c3nnc(-c4c[nH]c(=O)[nH]c4=O)cc23)C(F)F)ccn1 (stereo in doubt) [Example 40]
2. Cn1nc(O[C@H](c2cccc(OCC(F)(F)F)c2)C(F)F)c2cc(-c3c[nH]c(=O)[nH]c3=O)nnc21 [Example 1]
3. Cn1nc(O[C@H](c2ccnc(OCC(F)(F)F)c2)C(F)F)c2cc(-c3n[nH]c(=O)[nH]c3=O)nnc21 [Example 12]
4. Cn1nc(O[C@H](c2cc(OC3CC(F)(F)C3)ncn2)C(F)F)c2cc(-c3c[nH]c(=O)[nH]c3=O)nnc21 [Example 42A]
5. CCOc1ccnc([C@@H](Oc2nn(C)c3nnc(-c4c[nH]c(=O)[nH]c4=O)cc23)C(F)F)c1 [Example 20]
6. Cn1nc(O[C@H](c2ccnc(OCC(C)(F)F)c2)C(F)F)c2cc(-c3c[nH]c(=O)[nH]c3=O)nnc21 [Example 16]
7. C[C@H](Oc1nn(C)c2nnc(-c3c[nH]c(=O)[nH]c3=O)cc12)c1cc(OCC(F)(F)F)ncn1 (single isomer, unassigned) [Example 14A]

Key:
[10.30, 10.10, 10.70, 10.22, 10.22, 10.40, 10.05]

Please state, for each entry, its recorded pIC50.
1. Cn1nc(O[C@H](c2ccnc(NC3CCC(F)(F)CC3)c2)C(F)F)c2cc(-c3c[nH]c(=O)[nH]c3=O)nnc21 [Example 32]
2. Cn1nc(O[C@H](c2ccnc(COCC(F)(F)F)c2)C(F)F)c2cc(-c3c[nH]c(=O)[nH]c3=O)nnc21 [Example 34]

Key:
10.30
10.15

Please state, for each entry, its recorded pIC50.
1. Cn1nc(O[C@H](c2cc(OCC3(C(F)(F)F)CC3)ccn2)C(F)F)c2cc(-c3c[nH]c(=O)[nH]c3=O)nnc21 [Example 23]
2. [2H]C([2H])([2H])C([2H])([2H])Oc1cc([C@@H](Oc2nn(C)c3nnc(-c4c[nH]c(=O)[nH]c4=O)cc23)C(F)F)ccn1 [Example 30]
3. COCCOc1cc([C@@H](Oc2nn(C)c3nnc(-c4c[nH]c(=O)[nH]c4=O)cc23)C(F)F)ccc1F [Example 15]
4. Cn1nc(O[C@H](c2cc(OCC(F)F)ccn2)C(F)F)c2cc(-c3c[nH]c(=O)[nH]c3=O)nnc21 [Example 7]

Key:
1. 10.10
2. 10.30
3. 10.15
4. 10.10

Exercise: What value of pIC50 on CD73 (Homo sapiens, UniProt P21589) does Cn1nc(O[C@H](c2ccc3cnn(CC(F)(F)F)c3c2)C(F)F)c2cc(-c3c[nH]c(=O)[nH]c3=O)nnc21 [Example 24] have?
Key: 10.30

The reported measurements were obtained from patent US20260317332A1.
